# measurement_notes: Solubility at a pH 7.4
# Type: physicochemical
# settings: buffer, read-out: S
measured_attribute: solubility (µg/mL)
I only need the number, in µg/mL, no unit after it.

Need solubility, item CN1C(=O)C(NC(=O)Nc2cccc(C(=O)O)c2)N=C(C2CCCCC2)c2ccccc21 (stereo not drawn)
1050

Can you check CN1C(=O)[C@H](NC(=O)Nc2cccc(C(=O)NS(=O)(=O)c3ccccc3)c2)N=C(C2CCCCC2)c2ccccc21 next?
370

Can you check CC(=O)NS(=O)(=O)c1cccc(NC(=O)NC2N=C(C3CCCCC3)c3ccccc3N(C)C2=O)c1 (stereo not drawn) next?
260

Can you check Cc1ccccc1S(=O)(=O)NC(=O)c1cccc(NC(=O)N[C@@H]2N=C(C3CCCCC3)c3ccccc3N(C)C2=O)c1 next?
410

Can you check CC(C)S(=O)(=O)NC(=O)c1cccc(NC(=O)N[C@@H]2N=C(C3CCCCC3)c3ccccc3N(C)C2=O)c1 next?
1160

Can you check CC(C)S(=O)(=O)NC(=O)c1cccc(NC(=O)NC2N=C(C3CCCCC3)c3ccccc3N(C)C2=O)c1 (stereo not drawn) next?
740

Can you check CN1C(=O)C(NC(=O)Nc2cccc(S(=O)(=O)NC(=O)c3ccccc3)c2)N=C(C2CCCCC2)c2ccccc21 (stereo not drawn) next?
50

###

# measurement_notes: Ratio between CCKB and CCKA receptor binding affinity was measured by displacement of [125I]CCK from guinea pig cortical membranes and rat pancreatic tissues respectively
measured_attribute: Selectivity

Need Selectivity, item CN1C(=O)[C@H](NC(=O)Nc2cccc(C(=O)NS(=O)(=O)c3ccccc3)c2)N=C(C2CCCCC2)c2ccccc21
> 8000

Can you check CC(=O)NS(=O)(=O)c1cccc(NC(=O)NC2N=C(C3CCCCC3)c3ccccc3N(C)C2=O)c1 (stereo not given) next?
53

Can you check CN1C(=O)C(NC(=O)Nc2cccc(C(=O)O)c2)N=C(C2CCCCC2)c2ccccc21 (stereo not given) next?
2

Can you check Cc1cccc(NC(=O)N[C@@H]2N=C(C3CCCCC3)c3ccccc3N(C)C2=O)c1 next?
6500

Can you check CN1C(=O)C(NC(=O)Nc2cccc(C(=O)NS(=O)(=O)c3ccccc3)c2)N=C(C2CCCCC2)c2ccccc21 (stereo not given) next?
19

###

# measurement_notes: Compound was evaluated for its solubility at a pH 7.4
# Format: ADME
# settings: buffer
measured_attribute: solubility (µg/mL)
I only need the number, in µg/mL, no unit after it.

Need solubility, item CN1C(=O)C(NC(=O)Nc2cccc(C(=O)NS(C)(=O)=O)c2)N=C(C2CCCCC2)c2ccccc21 (stereo unspecified)
1300

###

# measurement_notes: Oral bioavailability in rat
# Type: ADME, organism-based
# settings: in vivo, read-out: Bioavailabiility
measured_attribute: bioavailability (%)
I only need the number, in %, no unit after it.

Need bioavailability, item CN1C(=O)C(NC(=O)Nc2cccc(S(=O)(=O)NC(=O)c3ccccc3)c2)N=C(C2CCCCC2)c2ccccc21 (stereo unspecified)
14
